# Test system: HIV-1 (strain IIIB)
# TEST: Anti-HIV-1 (strain IIIB) activity in MT-4 cells, MTT assay
# Type: cell-based
# CONDITIONS_USED: Human immunodeficiency virus 1, IIIB, MT4; protection of MT-4 cells against HIV-induced cytopathogenicity by 50%
ASSAY_METRIC: pEC50
Scale note: pEC50 = -log10(concentration in M).

Consider the worked cases shown below.
>>> df
                                   compound  test_value
0  O=C1Nc2cc(Cl)c(Cl)cc2C1=NNc1c[nH]c(=O)[nH]c1=O [Compound 11a]        4.41
1  O=C1Nc2cc(Cl)c(Cl)cc2C1=NNc1cc(=O)[nH]c(=O)[nH]1        3.96

API: the following record is the query input.
Query (compound): O=C1Nc2cc(Br)c(Br)cc2C1=NNc1c[nH]c(=O)[nH]c1=O [Compound 11b] ; field requested: pEC50
4.35
